- System: Staphylococcus aureus
- assay_info: Antibacterial activity against Staphylococcus aureus ATCC 29213
- Format: functional
measurement_kind: MIC

// query Write MIC of CC(=O)NC[C@H]1CN(c2ccc(N3CCOCC3)c(F)c2)C(=O)O1 ; system used: Staphylococcus aureus
// result 2 to 4 µg/mL

// query Write MIC of O=C1NC(=O)C2(Cc3cc(-c4ccc(N5C[C@H](CO)OC5=O)cc4F)ccc3N3CCOCC32)C(=O)N1 (stereo not given in full) ; system used: Staphylococcus aureus
// result 8 µg/mL

// query Write MIC of CCOC(=O)NC[C@H]1CN(c2ccc(-c3ccc4c(c3)CC3(C(=O)NC(=O)NC3=O)C3CCCN43)c(F)c2)C(=O)O1 (stereo not given in full) ; system used: Staphylococcus aureus
// result 8 µg/mL

// query Write MIC of O=C1O[C@@H](CO)CN1c1ccc(-c2ccc3c(c2)CC2(C(=O)NNC2=O)C2CCCN32)c(F)c1 (stereo not given in full) ; system used: Staphylococcus aureus
// result 4 to 32 µg/mL

// query Write MIC of CCC(=O)NC[C@H]1CN(c2ccc(-c3ccc4c(c3)CC3(C(=O)NC(=O)NC3=O)C3CCCN43)c(F)c2)C(=O)O1 (stereo not given in full) ; system used: Staphylococcus aureus
// result 16 µg/mL

// query Write MIC of COC(=O)NC[C@H]1CN(c2ccc(-c3ccc4c(c3)CC3(C(=O)NC(=O)NC3=O)C3COCCN43)c(F)c2)C(=O)O1 (stereo not given in full) ; system used: Staphylococcus aureus
// result 4 µg/mL

// query Write MIC of CC(=O)NC[C@H]1CN(c2ccc(-c3ccc4c(c3)CC3(C(=O)NNC3=O)C3CCCN43)c(F)c2)C(=O)O1 (stereo not given in full) ; system used: Staphylococcus aureus
// result 8 µg/mL

// query Write MIC of CS(=O)(=O)NC[C@H]1CN(c2ccc(-c3ccc4c(c3)CC3(C(=O)NC(=O)NC3=O)C3COCCN43)c(F)c2)C(=O)O1 (stereo not given in full) ; system used: Staphylococcus aureus
// result 32 µg/mL

// query Write MIC of COC(=O)C1(C(=O)OC)Cc2cc(-c3ccc(N4C[C@H](CNC(C)=O)OC4=O)cc3F)ccc2N2CCOCC21 (stereo not given in full) ; system used: Staphylococcus aureus
// result 8 µg/mL

// query Write MIC of CC(=O)NC[C@H]1CN(c2ccc(-c3ccc4c(c3)CC3(C(=O)NC(=O)NC3=O)C3CCCCN43)c(F)c2)C(=O)O1 (stereo not given in full) ; system used: Staphylococcus aureus
// result 2 µg/mL

---

Consider the following molecules; for each one, report its MIC.
- Test system: Staphylococcus aureus
- assay_info: Antibacterial activity against methicillin-resistant Staphylococcus aureus 562
- Format: functional
Field: numeric (µg/mL). Do not append units.

// query Look up and state reported MIC for CS(=O)(=O)NC[C@H]1CN(c2ccc(-c3ccc4c(c3)CC3(C(=O)NC(=O)NC3=O)C3COCCN43)c(F)c2)C(=O)O1 (stereo partly drawn)
// result 32

// query Look up and state reported MIC for COC(=O)NC[C@H]1CN(c2ccc(-c3ccc4c(c3)CC3(C(=O)NC(=O)NC3=O)C3COCCN43)c(F)c2)C(=O)O1 (stereo partly drawn)
// result 4

---

- System: Staphylococcus aureus
- assay_info: Antibacterial activity against Staphylococcus aureus ATCC 29213
- Assay type: functional
Consider the following molecules; for each one, report its MIC.

// query Look up and state reported MIC for O=C1NC(=O)C2(Cc3cc(N4C[C@H](CO)OC4=O)ccc3N3CCOCC32)C(=O)N1 (stereo partly drawn)
// result > 32 µg/mL

// query Look up and state reported MIC for CC(=O)NC[C@H]1CN(c2ccc3c(c2)CC2(C(=O)NNC2=O)C2COCCN32)C(=O)O1 (stereo partly drawn)
// result > 32 µg/mL

// query Look up and state reported MIC for O=C1O[C@@H](CO)CN1c1ccc2c(c1)CC1(C(=O)NNC1=O)C1COCCN21 (stereo partly drawn)
// result > 32 µg/mL

---

- Test system: Staphylococcus aureus
- assay_info: Antibacterial activity against […] Staphylococcus aureus ATCC 13709 SMITH
- Format: functional
measurement_kind: MIC

// query Look up and state reported MIC for CCOC(=O)NC[C@H]1CN(c2ccc(-c3ccc4c(c3)CC3(C(=O)NC(=O)NC3=O)C3CCCN43)c(F)c2)C(=O)O1 (stereo partly drawn)
// result > 32 µg/mL

// query Look up and state reported MIC for CC(=O)NC[C@H]1CN(c2ccc3c(c2)CC2(C(=O)NNC2=O)C2COCCN32)C(=O)O1 (stereo partly drawn)
// result > 32 µg/mL

// query Look up and state reported MIC for CS(=O)(=O)NC[C@H]1CN(c2ccc(-c3ccc4c(c3)CC3(C(=O)NC(=O)NC3=O)C3CCCN43)c(F)c2)C(=O)O1 (stereo partly drawn)
// result > 32 µg/mL
